Experiment: Metabolic stability in human liver microsomes
Type: in vitro ADME
Conditions: human liver microsomes 1 mg/mL protein, 1 μM compound, 37° C., NADPH-regenerating system; read-out: In vitro intrinsic clearance CLint-microsomes
Method: Study design—Test compounds (ambroxol and deuterated analogs) were dissolved in dimethylsulfoxide (DMSO) to prepare 1 mM stock solutions. […] Quenched samples were analyzed by liquid chromatography coupled to tandem mass spectrometry detection (LC/MS-MS). […] The in vitro half-life (t1/2) was determined from kel based on the formula: t1/2=ln(2)/kel. […]
Attribute: microsomal CLint at 1 μM

{"molecule": "[2H]C([2H])(N[C@H]1CC[C@H](O)CC1)c1cc(Br)cc(Br)c1N [ZW-001]", "microsomal CLint at 1 μM": "7 µL/min/mg"}
{"molecule": "Nc1c(Br)cc(Br)cc1CN[C@H]1CC[C@H](O)CC1 [ambroxol]", "microsomal CLint at 1 μM": "11.4 µL/min/mg"}
